The reported measurements were obtained from ChEMBL document CHEMBL4304757.

# PROTOCOL: Inhibition of yeast alpha-glucosidase using p-nitrophenyl-alpha-d-glucopyranoside as substrate preincubated for 15 mins followed by substrate addition measured after 30 mins
# Parameters: species or system Saccharomyces cerevisiae
# IC50 per record follows
MEASURE_NAME: IC50

compound="Cc1[nH]nc2c1C(c1ccc(O)c(OCc3ccccc3)c1)C(C#N)=C(N)O2 (stereo not given)" measure_name=IC50 value="60 to 180 µM"
compound="O=C(CC(c1ccc(Br)cc1)C(C(=O)Nc1ccccn1)C(=O)Nc1ccccn1)c1ccccc1 (stereo not given)" measure_name=IC50 value="12 µM"
compound="Cc1[nH]nc2c1C(c1ccccc1OCc1ccccc1)C(C#N)=C(N)O2 (stereo not given)" measure_name=IC50 value="60 to 180 µM"
compound="Cc1n[nH]c2c1C(c1ccc(Cl)cc1Cl)C(C#N)=C(N)O2 (stereo not given)" measure_name=IC50 value="60 to 180 µM"
compound="COc1cc(C2C(C#N)=C(N)Oc3n[nH]c(C)c32)ccc1OCc1ccccc1 (stereo not given)" measure_name=IC50 value="60 to 180 µM"
